So I've got a bunch of molecules here, and I need their GI50 values.
- Tested on: DMS-273
- TEST DETAILS: NCI tumour cell line growth inhibition, 48 h
Active and inactive are the calls of the source. No stated cut-off is given here; in the data, active = GI50 up to about 1.1 µM and inactive = higher.

Determine its reported GI50: Cc1cc(Cl)ccc1NC(=O)C1C(=O)C(=O)N(c2ccc(Cl)cc2C)C1=O (stereo not drawn)
> 100 µM (inactive)

Quick one: give measured GI50 for "N#C/N=C(/N)NCO"
> 90.4 µM (inactive)

Assign GI50 to the following record: CCC12CCCNC1c1c(n(C)c3ccccc13)C(C(=O)OC)C2 (stereo not drawn)
68.7 µM (inactive)

* * *

HCT-15 data, read-out GI50

Please indicate GI50 recorded for "O=C1Nc2ccccc2/C1=N/NC(=S)Nc1ccc(Cl)cc1"
20.2 µM

Report measured GI50; entry is "COc1ccc(-c2c(N)n(-c3cccc(C(=O)O)c3)c(=O)c3cc([N+](=O)[O-])ccc23)cc1"
> 100 µM

Retrieve GI50 measured for "COC(=O)C1(C(=O)OC)C/C(C)=C(/C)SCCCS1" and print it.
> 100 µM

// Input: CN(C)CCNC1=Nc2ccccc2C(=S)N2CSCC12 (stereo not given) . Output its GI50 only.
> 100 µM

Annotate the compound "C#Cc1c(C)c(/C=C/C(C)=C/C=C/C(C)=C/C(=O)OC)n(C)c1C" with its measured GI50.
> 100 µM

Specify GI50 for "O=C(O)COc1ccccc1C(=O)Nc1ccccc1" and stop.
> 100 µM

Quick one: give measured GI50 for "Cc1cc(S(=O)(=O)n2ccnc2Oc2cccc(Cl)c2)c(SSc2cc(Cl)c(C)cc2S(=O)(=O)n2ccnc2Oc2cccc(Cl)c2)cc1Cl"
8.67 µM

Determine its reported GI50: CCOC(=O)N1CCC(=C2c3ccc(Cl)cc3CCc3cccnc32)CC1 [LORATADINE]
7.55 µM

Let me know recorded GI50 for O=C1NC2C=CN(Cc3ccccc3)C=C2C(=O)N2CCCC12 (stereo not given) , thanks.
> 100 µM

For the compound Cc1cc(O)c2c(c1)C(=O)c1cc(O)cc(O)c1C2=O [EMODIN] , report GI50.
22.9 µM
